System: IL-8
Experiment: hPBMCs assay, LPS-induced IL-8
Format: cell-based
Settings: Homo sapiens, LPS 1 μg/ml, 5 hours, ELISA
Counter-ions that a name gives are not always drawn.
readout-type: IC50 (µM)

> print(dat)
                                   compound  value
1  COc1cc(OC)c(C2CCN(C)C2CO)c(O)c1C(=O)C=Cc1ccccc1Cl (racemic) [Example 20, hydrochloride]    6.5
2  COc1cc(OC)c(C2CCN(C)C2CO)c(O)c1C(=O)C=Cc1cccc(Br)c1 (racemic) [Example 21]    5.2
3  COc1cc(OC)c(C2CCN(C)C2CO)c(O)c1C(=O)C=Cc1cccc([N+](=O)[O-])c1 (racemic) [Example 25]    5.4

The measured values listed here are drawn from patent US20130203815A1.
